# Test system: U2OS
# assay comment: Here: values are normalized to the positive (DMSO; basel flux = defined as 100% suppression) and negative (250nM Torin1; mTOR inhibitor; maximal inducer of autophagy defined as 0% suppression) control compounds and represented as % of ER-phagy suppression. […] The impact of autophagy induction on cells is complex and depends on the affected target. […] Of note, treatment concentrations may be sub-optimal for specific compounds, leading to false negative annotations.
# Format: functional, Homo sapiens
# protocol conditions: Compound Concentration 1 uM, Timepoint 24 hours, Culturing Media DMEM, 1 % Penicillin/Streptomycin, 10% Fetal bovin serum Add-On: blasticidin, Screening Media Control DMEM, 10% Fetal bovin serum Add-On: 1 µg/ml Doxycyclin, Screening Media Samples DMEM, 10% Fetal bovin serum Add-On: 1 µg/ml Doxycyclin 250nM Torin1
Classification by ER-phagy suppression follows these ranges: low group: < -20%; middle group: ≥ -20% and < 30%; high group: ≥ 30%

Query string: Which class is correct for the following compound? CC(=O)Nc1cccc(-n2c(=O)n(C3CC3)c(=O)c3c(Nc4ccc(I)cc4F)n(C)c(=O)c(C)c32)c1
Result string: high group

Query string: Class label required: CCOc1cc(N2CCC(O)CC2)ccc1Nc1ncc2c(n1)N(C)c1ccccc1C(=O)N2C
Result string: middle group

Query string: // return the class label for CN1CCN(Cc2cc(NC(=O)c3ccc4c(c3)CN(c3ccccc3)CC4)cc(C(F)(F)F)c2)CC1
Result string: middle group

Query string: In plain terms, what class is Cc1ccc(N(C)c2cc(N(C)C3CC3)n3ncc(C#N)c3n2)cc1NC(=O)C1CC1 ?
Result string: high group

Query string: Band assignment needed for CN1CCN(C(=O)C(C)(C)c2ccc(C(=O)Nc3cn4cc(-c5ccncc5)ccc4n3)cc2)CC1 please.
Result string: high group

Query string: Category of CN(C)C1CC(n2cnc(-c3ccc(F)cc3)c2-c2ccnc3[nH]ccc23)C1 (stereo not given) :
Result string: low group

----------
# System: U2OS
# assay comment: Here: values are normalized to the positive (DMSO; basel flux = defined as 100% suppression) and negative (250nM Torin1; mTOR inhibitor; maximal inducer of autophagy defined as 0% suppression) control compounds and represented as % of ER-phagy suppression. […] The impact of autophagy induction on cells is complex and depends on the affected target. […] Of note, treatment concentrations may be sub-optimal for specific compounds, leading to false negative annotations.
# Format: functional, Homo sapiens
# protocol conditions: Compound Concentration 1 uM, Timepoint 60 hours, Culturing Media DMEM, 1 % Penicillin/Streptomycin, 10% Fetal bovin serum Add-On: blasticidin, Screening Media Control DMEM, 10% Fetal bovin serum Add-On: 1 µg/ml Doxycyclin, Screening Media Samples DMEM, 10% Fetal bovin serum Add-On: 1 µg/ml Doxycyclin 250nM Torin1
// reported ER-phagy suppression for each item listed
Express it in %; write the number only.

C[C@@H](N)[C@H]1CC[C@H](C(=O)Nc2ccncc2)CC1.Cl.Cl ... 2.669
Fc1ccc(-c2ncn(Cc3nc[nH]n3)c2-c2ccnc3[nH]ccc23)cc1 ... 19.5799
O=c1cc(N2CCOCC2)oc2c1ccc1ccccc12 ... 13.3057

In plain terms, CC1=C(C#N)C(c2ccc3[nH]nc(C)c3c2)C(C#N)=C(C)N1 [BAY-474] has a documented ER-phagy suppression of 16.6513

Please fill in: ER-phagy suppression reported for CN(c1ccnc(CNc2nc(Nc3ccc4c(c3)CC(=O)N4)ncc2C(F)(F)F)n1)S(C)(=O)=O [PF-00911705] = 9.977

The compound identified as CN(C)[C@H]1C[C@H](n2cnc(-c3ccc(F)cn3)c2-c2ccnc3[nH]ccc23)C1 registered its ER-phagy suppression at 17.3235

Briefly, ER-phagy suppression measured for CN1CCN(Cc2cc(NC(=O)c3ccc4c(c3)CN(c3ccccc3)CC4)cc(C(F)(F)F)c2)CC1 : -14.9547

Please fill in: ER-phagy suppression reported for CC(C)NC(=O)N1CC[C@H](NC2=Nc3cc(F)ccc3N(CC(F)F)c3ccc(Cl)cc32)C1 = -4.344

According to the records, this compound Cc1ccc(C(=O)Nc2cccc(C(F)(F)F)c2)cc1Nc1nc(-c2cccnc2)nc2c1cnn2C displays ER-phagy suppression of 22.9955

----------
# System: U2OS
# assay comment: Here: values are normalized to the negative (DMSO; defined as 0% autophagy induction) and positive (250nM Torin1; mTOR inhibitor; defined as maximal inducer of autophagy = 100%) control compounds and represented as % of autophagy induction. […] The impact of autophagy induction on cells is complex and depends on the affected target. As such, the magnitude of a phenotype may not be equally mirrored in the %-value of autophagy induction and vice versa. The dynamics of the induction may indicate the mode of activation: e.g. activation via phosphorylation or a signaling cascade may occur fast, while activation via transcription factors may take considerably longer. […] Of note, treatment concentrations may be sub-optimal for specific compounds, leading to false negative annotations.
# Assay type: functional, Homo sapiens
# protocol conditions: Compound Concentration 2 uM, Timepoint 36 hours, Culturing Media DMEM, 1 % Penicillin/Streptomycin, 10% Fetal bovin serum Add-On: No, Screening Media Control DMEM, Screening Media Samples DMEM
Consider the following molecules and their measured autophagy induction readings.
Kindly provide the numeric value in % only, without the unit symbol.

Consider the reported autophagy induction for these molecules:
COC1CCN(c2cccc(-c3cc(NC(C)=O)nc(-n4nc(C)cc4C)n3)n2)CC1 ... -1.762
O=C(O)CC1CCC2(CC1)CCN(c1cc(OC(F)(F)F)ccc1Cl)CC2 ... -5.315
CCCCC#Cc1nc(NC)c2ncn([C@@H]3O[C@H](CO)[C@@H](O)[C@H]3O)c2n1 ... -4.18

Next:
// autophagy induction value for C/C(=N\NC(=O)[C@@H]1C(=O)NC[C@H]1c1ccccc1)c1cccc(Br)c1 : -2.749

----------
# Tested on: U2OS
# assay comment: Here: values are normalized to the negative (DMSO; defined as 0% autophagy induction) and positive (250nM Torin1; mTOR inhibitor; defined as maximal inducer of autophagy = 100%) control compounds and represented as % of autophagy induction. […] The impact of autophagy induction on cells is complex and depends on the affected target. As such, the magnitude of a phenotype may not be equally mirrored in the %-value of autophagy induction and vice versa. The dynamics of the induction may indicate the mode of activation: e.g. activation via phosphorylation or a signaling cascade may occur fast, while activation via transcription factors may take considerably longer. […] Of note, treatment concentrations may be sub-optimal for specific compounds, leading to false negative annotations.
# Format: functional, Homo sapiens
# protocol conditions: Compound Concentration 0.5 uM, Timepoint 60 hours, Culturing Media DMEM, 1 % Penicillin/Streptomycin, 10% Fetal bovin serum Add-On: No, Screening Media Control DMEM, Screening Media Samples DMEM
quantity measured: autophagy induction (%)
Just the number in %, nothing appended.

Check out these entries, answers already filled in.
Cc1csc2c(N[C@@H](C)CN3CCN(S(=O)(=O)c4ccc(Cl)c(Cl)c4)CC3)ncnc12 ... 4.711
CCC[C@H](Oc1cc(C)c(-n2cc(C(F)(F)F)cn2)c(C)c1)c1ccc(C(=O)NCCC(=O)O)cc1 ... -20.1699

Moving on to the next compound.
For FC(F)(F)c1cccc(-c2noc(-c3cc(-c4ccccc4)c(C(F)(F)F)s3)n2)c1 the compound record lists autophagy induction as -12.3398

----------
# Test system: U2OS
# assay comment: Here: values are normalized to the negative (DMSO; defined as 0% autophagy induction) and positive (250nM Torin1; mTOR inhibitor; defined as maximal inducer of autophagy = 100%) control compounds and represented as % of autophagy induction. […] The impact of autophagy induction on cells is complex and depends on the affected target. As such, the magnitude of a phenotype may not be equally mirrored in the %-value of autophagy induction and vice versa. The dynamics of the induction may indicate the mode of activation: e.g. activation via phosphorylation or a signaling cascade may occur fast, while activation via transcription factors may take considerably longer. […] Of note, treatment concentrations may be sub-optimal for specific compounds, leading to false negative annotations.
# Format: functional, Homo sapiens
# protocol conditions: Compound Concentration 2 uM, Timepoint 36 hours, Culturing Media DMEM, 1 % Penicillin/Streptomycin, 10% Fetal bovin serum Add-On: No, Screening Media Control DMEM, Screening Media Samples DMEM
quantity measured: autophagy induction (%)
State just the number; it will be interpreted in %.

Observe how each entry below is paired with its result.
N#Cc1c(N)nc(SCC(N)=O)c(C#N)c1-c1ccc(OCC2CC2)cc1 ... 4.058
CCCCN(CC)c1nc(C)nc2c1c(C)cn2-c1c(C)cc(C)cc1C.Cl ... 5.091
COc1ccc(/C=C/CCCCOc2ccc(C(=O)c3cccc(C(=O)O)c3)cc2CCC(=O)O)cc1 ... -3.285
CC(C)C[C@H](NC(=O)N1CCCCCC1)C(=O)N[C@H](Cc1cn(C)c2ccccc12)C(=O)N[C@H](Cc1ccccn1)C(=O)O ... 4.273
N#Cc1ccc(NC(=O)Nc2ccccc2Br)c2nn[nH]c12 ... -14.4856

Okay, next one:
Summary for this compound, C[C@H](CO)Nc1nc(SCc2cccc(Cl)c2F)nc2[nH]c(=O)sc12 : autophagy induction is -3.053

Data credit: ChEMBL document CHEMBL5724696
